- targetSystem: Neuropeptide Y receptor type 4 (Homo sapiens, UniProt P50391)
- Sequence (P50391 whole entry): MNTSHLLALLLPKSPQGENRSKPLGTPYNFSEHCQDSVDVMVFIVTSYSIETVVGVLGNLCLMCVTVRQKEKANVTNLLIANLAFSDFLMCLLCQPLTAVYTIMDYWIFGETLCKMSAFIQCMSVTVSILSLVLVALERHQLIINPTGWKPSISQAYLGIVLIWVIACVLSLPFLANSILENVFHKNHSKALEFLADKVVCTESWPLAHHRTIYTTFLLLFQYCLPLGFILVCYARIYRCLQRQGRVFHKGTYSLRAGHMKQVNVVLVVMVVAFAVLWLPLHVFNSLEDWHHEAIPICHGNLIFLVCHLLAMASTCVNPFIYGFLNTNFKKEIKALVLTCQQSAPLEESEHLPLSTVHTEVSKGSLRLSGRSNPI
- experimentalDetails: Agonist potency at human Y4 receptor expressed in HEK293T-NlucN-mGSi/Y4R-NlucC cells assessed as intrinsic activity by miniGsi protein recruitment assay relative to hPP
- Assay type: cell-based
- conditionParameters: filed as agonist
Examples of compounds with documented Intrinsic activity follow.
Response body: numeric value in %, unit text excluded.

// below: answered compounds
smilesInput | resultUnit | measuredValue
CC(C)C[C@H](NC(=O)[C@@H]1CCCNC(=N)NC(=O)NCCCCNC(=O)CCC(=O)N[C@@H](CCCNC(=N)N)C(=O)N[C@@H](Cc2c[nH]c3ccccc23)C(=O)N1)C(=O)N[C@@H](CCCNC(=N)N)C(=O)N[C@@H](Cc1ccc(O)cc1)C(N)=O | % | 80
CC(C)C[C@H](NC(=O)[C@@H](N)CCCNC(=N)N)C(=O)N[C@@H](CCCNC(=N)N)C(=O)N[C@@H](Cc1ccc(O)cc1)C(N)=O | % | 54

Proceed to the following item.
[in] Answer with reported Intrinsic activity of CC(C)C[C@H](NC(=O)[C@@H]1CCCNC(=N)NC(=O)NCCCCNC(=O)CCC(=O)N[C@@H](CCCNC(=N)N)C(=O)N[C@@H](Cc2ccc(O)cc2)C(=O)N1)C(=O)N[C@@H](CCCNC(=N)N)C(=O)N[C@@H](Cc1ccc(O)cc1)C(N)=O
[out] 68

* * *

- targetSystem: Neuropeptide Y receptor type 4 (Homo sapiens, UniProt P50391)
- experimentalDetails: Displacement of [3H]UR-KK200 from human Y4 receptor expressed in CHO-Gqi5-mtAQE cells measured after 90 mins by MicroBeta plate counter based competition binding assay
- Type: cell-based
- conditionParameters: read-out: Ki
Starred links: 1 amine or outer side, 2 acyl side, 3 side chain; linkers in the order of their positions; H or OH if unused. Non-standard residues stand in square brackets, D forms with d. Residues, ends and D or L forms follow the SMILES beside them. X1 = O=C([C@@H]1C[C@@H](c2ccccc2)[C@@H]1CN[*:1])[*:2]; X2 = O=C([C@H]1C[C@H](c2ccccc2)[C@H]1CN[*:1])[*:2]
reportedEndpoint: pKi
# pKi is unitless: minus log10 of the molar concentration; print number only

// below: answered compounds
compound | pKi
CC(=O)N[C@@H](CCCNC(=N)N)C(=O)NC[C@H]1[C@@H](C(=O)N[C@@H](CCCNC(=N)N)C(=O)N[C@@H](CC(C)C)C(=O)N[C@@H](CCCNC(=N)N)C(=O)N[C@@H](Cc2ccc(O)cc2)C(N)=O)C[C@@H]1c1ccccc1 (Ac-R[X2]RLRY-NH2) | 7.92
CC(=O)N[C@@H](CCCNC(=N)N)C(=O)NC[C@@H]1[C@H](C(=O)N[C@@H](CCCNC(=N)N)C(=O)N[C@@H](CC(C)C)C(=O)N[C@@H](CCCNC(=N)N)C(=O)N[C@@H](Cc2ccc(O)cc2)C(N)=O)C[C@H]1c1ccccc1 (Ac-R[X1]RLRY-NH2) | 9.18
CC(=O)N[C@@H](CCCNC(=N)N)C(=O)NC[C@H]1[C@@H](C(=O)N[C@@H](CCCNC(=N)N)C(=O)NC[C@H]2[C@@H](C(=O)N[C@@H](CCCNC(=N)N)C(=O)N[C@@H](Cc3ccc(O)cc3)C(N)=O)C[C@@H]2c2ccccc2)C[C@@H]1c1ccccc1 (Ac-R[X2]R[X2]RY-NH2) | 6.04

Proceed to the following item.
[in] Given CC(=O)N[C@@H](CCCNC(=N)N)C(=O)NC[C@@H]1[C@H](C(=O)N[C@@H](CCCNC(=N)N)C(=O)NC[C@@H]2[C@H](C(=O)N[C@@H](CCCNC(=N)N)C(=O)N[C@@H](Cc3ccc(O)cc3)C(N)=O)C[C@H]2c2ccccc2)C[C@H]1c1ccccc1 (Ac-R[X1]R[X1]RY-NH2) , report its pKi on Neuropeptide Y receptor type 4 (Homo sapiens, UniProt P50391).
[out] 6.47

* * *

- experimentalDetails: Stability in human plasma assessed as rate constant by measuring loss of intact peptide at 100 uM measured upto 24 hrs at 37 degC
- Type: ADME, cell-free
Starred links: 1 amine or outer side, 2 acyl side, 3 side chain; linkers in the order of their positions; H or OH if unused. Non-standard residues stand in square brackets, D forms with d. Residues, ends and D or L forms follow the SMILES beside them. X1 = O=C([C@@H]1C[C@@H](c2ccccc2)[C@@H]1CN[*:1])[*:2]; X2 = O=C([C@H]1C[C@H](c2ccccc2)[C@H]1CN[*:1])[*:2]
Examples of compounds with documented half-life at 100 µM follow.
Response body: numeric value in h, unit text excluded.

// below: answered compounds
compound | reportedEndpoint | measuredValue
CC(=O)N[C@@H](CCCNC(=N)N)C(=O)NC[C@H]1[C@@H](C(=O)N[C@@H](CCCNC(=N)N)C(=O)N[C@@H](CC(C)C)C(=O)N[C@@H](CCCNC(=N)N)C(=O)N[C@@H](Cc2ccc(O)cc2)C(N)=O)C[C@@H]1c1ccccc1 (Ac-R[X2]RLRY-NH2) | half-life at 100 µM | 2.2
CC(=O)N[C@@H](CCCNC(=N)N)C(=O)N[C@@H](Cc1ccc(O)cc1)C(=O)N[C@@H](CCCNC(=N)N)C(=O)N[C@@H](CC(C)C)C(=O)N[C@@H](CCCNC(=N)N)C(=O)N[C@@H](Cc1ccc(O)cc1)C(N)=O | half-life at 100 µM | 1.4

Proceed to the following item.
[in] Answer with reported half-life at 100 µM of CC(=O)N[C@@H](CCCNC(=N)N)C(=O)NC[C@@H]1[C@H](C(=O)N[C@@H](CCCNC(=N)N)C(=O)N[C@@H](CC(C)C)C(=O)N[C@@H](CCCNC(=N)N)C(=O)N[C@@H](Cc2ccc(O)cc2)C(N)=O)C[C@H]1c1ccccc1 (Ac-R[X1]RLRY-NH2)
[out] 0.4

* * *

Examples of compounds with documented Ki follow.
- targetSystem: Neuropeptide Y receptor type 5 (Homo sapiens, UniProt Q15761)
- Sequence (Q15761 whole entry): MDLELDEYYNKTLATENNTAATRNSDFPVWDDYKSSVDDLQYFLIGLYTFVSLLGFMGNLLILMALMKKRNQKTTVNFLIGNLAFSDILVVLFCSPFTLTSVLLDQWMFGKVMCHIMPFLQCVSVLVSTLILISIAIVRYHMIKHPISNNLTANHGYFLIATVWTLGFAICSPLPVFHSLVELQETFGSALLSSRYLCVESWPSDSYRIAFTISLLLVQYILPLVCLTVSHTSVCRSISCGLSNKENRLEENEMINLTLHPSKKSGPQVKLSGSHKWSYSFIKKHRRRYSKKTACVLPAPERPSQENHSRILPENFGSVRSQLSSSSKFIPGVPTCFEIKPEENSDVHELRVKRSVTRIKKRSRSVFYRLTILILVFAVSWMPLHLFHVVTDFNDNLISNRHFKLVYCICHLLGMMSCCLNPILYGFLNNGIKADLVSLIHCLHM
- experimentalDetails: Displacement of [3H]propionyl-pNPY from human Y5 receptor expressed in HEC-1B cells measured after 90 mins by MicroBeta plate counter based competition binding assay
- Format: cell-based, HEC-1B cell line
- conditionParameters: read-out: pKi (converted)
Starred links: 1 amine or outer side, 2 acyl side, 3 side chain; linkers in the order of their positions; H or OH if unused. Non-standard residues stand in square brackets, D forms with d. Residues, ends and D or L forms follow the SMILES beside them. X1 = O=C([C@@H]1C[C@@H](c2ccccc2)[C@@H]1CN[*:1])[*:2]; X2 = O=C([C@H]1C[C@H](c2ccccc2)[C@H]1CN[*:1])[*:2]

// below: answered compounds
compound | targetSystem | Ki
CC(=O)N[C@@H](CCCNC(=N)N)C(=O)NC[C@@H]1[C@H](C(=O)N[C@@H](CCCNC(=N)N)C(=O)N[C@@H](CC(C)C)C(=O)N[C@@H](CCCNC(=N)N)C(=O)N[C@@H](Cc2ccc(O)cc2)C(N)=O)C[C@H]1c1ccccc1 (Ac-R[X1]RLRY-NH2) | Neuropeptide Y receptor type 5 (Homo sapiens, UniProt Q15761) | > 3.16 µM
CC(=O)N[C@@H](CCCNC(=N)N)C(=O)N[C@@H](Cc1ccc(O)cc1)C(=O)N[C@@H](CCCNC(=N)N)C(=O)N[C@@H](CC(C)C)C(=O)N[C@@H](CCCNC(=N)N)C(=O)N[C@@H](Cc1ccc(O)cc1)C(N)=O | Neuropeptide Y receptor type 5 (Homo sapiens, UniProt Q15761) | > 5.01 µM
CC(=O)N[C@@H](CCCNC(=N)N)C(=O)NC[C@H]1[C@@H](C(=O)N[C@@H](CCCNC(=N)N)C(=O)NC[C@H]2[C@@H](C(=O)N[C@@H](CCCNC(=N)N)C(=O)N[C@@H](Cc3ccc(O)cc3)C(N)=O)C[C@@H]2c2ccccc2)C[C@@H]1c1ccccc1 (Ac-R[X2]R[X2]RY-NH2) | Neuropeptide Y receptor type 5 (Homo sapiens, UniProt Q15761) | > 1 µM

[in] Answer with reported Ki of CC(=O)N[C@@H](CCCNC(=N)N)C(=O)NC[C@H]1[C@@H](C(=O)N[C@@H](CCCNC(=N)N)C(=O)N[C@@H](CC(C)C)C(=O)N[C@@H](CCCNC(=N)N)C(=O)N[C@@H](Cc2ccc(O)cc2)C(N)=O)C[C@@H]1c1ccccc1 (Ac-R[X2]RLRY-NH2)
[out] > 3.16 µM

[in] Answer with reported Ki of CC(=O)N[C@@H](CCCNC(=N)N)C(=O)NC[C@@H]1[C@H](C(=O)N[C@@H](CCCNC(=N)N)C(=O)NC[C@@H]2[C@H](C(=O)N[C@@H](CCCNC(=N)N)C(=O)N[C@@H](Cc3ccc(O)cc3)C(N)=O)C[C@H]2c2ccccc2)C[C@H]1c1ccccc1 (Ac-R[X1]R[X1]RY-NH2)
[out] > 1 µM
